Data credit: PubChem BioAssay AID1220

Hi there, I'd appreciate the recorded inhibition for every entry that follows.
# Tested Target: Mannose-6-phosphate isomerase (Homo sapiens) (UniProt P34949)
# Sequence (P34949 whole entry, looked up): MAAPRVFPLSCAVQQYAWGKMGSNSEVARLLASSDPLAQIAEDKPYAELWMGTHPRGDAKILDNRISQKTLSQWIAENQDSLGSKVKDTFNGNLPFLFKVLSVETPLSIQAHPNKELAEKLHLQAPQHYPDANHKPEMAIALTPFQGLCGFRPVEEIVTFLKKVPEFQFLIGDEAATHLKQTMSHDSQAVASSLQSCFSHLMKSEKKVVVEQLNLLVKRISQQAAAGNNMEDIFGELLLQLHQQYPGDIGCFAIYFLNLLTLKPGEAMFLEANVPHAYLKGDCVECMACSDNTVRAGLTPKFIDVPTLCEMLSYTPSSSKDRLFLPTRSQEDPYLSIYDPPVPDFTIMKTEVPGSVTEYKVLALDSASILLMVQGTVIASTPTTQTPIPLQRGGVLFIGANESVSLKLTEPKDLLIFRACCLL
# Test Summary: MPI inhibition at elevated mannose 6-phosphate – biochemical, fluorescence intensity, high mannose 6-phosphate, primary screen (AID 1220)
# Study Conditions: recombinant PMI enzyme, coupled fluorescence intensity; at 20 µM; stronger effect = higher value
The campaign covered roughly 190,000 compounds. About 1,300 (0.68%) were called active. The list comes from a sample in which actives are over-represented; it also holds close analogues and randomly drawn compounds.
Give the value, in units of %, as a plain number.

The compound listed as "CCOC(=O)c1c(C)c(C(=O)NCc2ccccn2)c(C)n1CC" has a reported inhibition of 12.2

// field: inhibition; key: "COc1ccccc1N1CCN(C(=O)c2ccc3c(Cl)c4c(nc3c2)CCCC4)CC1" ; value = 14.1

The recorded inhibition for entry "CCOC(=O)/C(N=Nc1ccc(C(=O)O)cc1[N+](=O)[O-])=C(\C)O" equals -1.9

For reference, reported inhibition for O=C(CNC(=O)C1COc2ccccc2O1)N/N=C\c1cccc(O)c1 (centres undefined) stands at -10.8

Record "CC(=O)c1ccc(N2CCN(C(=O)c3ccc(Br)cc3)CC2)c(F)c1" , field inhibition: 55.1

Notebook: "COC(=O)c1ccc(CC(=O)c2ccc(O)cc2O)o1" , inhibition read as -59.1

Recorded inhibition (compound "COc1cc2c(cc1O)CC[n+]1cc3c(OC)c(OC)ccc3cc1-2" ): 39.9

Looking up "CCOC(=O)c1c(C)c(C(=O)NCc2cccnc2)c(C)n1C" , I found its inhibition recorded as -0.6

inhibition for "CCc1nnc(NC(=O)c2ccc(N(C)S(=O)(=O)c3ccccc3)cc2)s1" is -6.4

Entry "CCN(CC)c1ccc(/C=N/NC(=O)c2c[nH]c3ccccc23)cc1" — recorded inhibition = 21.6

Note to self: inhibition recorded for "COc1ccc(OC)c(-c2c3cc(O)c(=O)cc-3oc3cc(O)c(O)cc23)c1" was 55.4

// inhibition value for "CCOC(=O)c1nn(-c2ccc(OC)cc2)c(=O)c2c(N)scc12" : 27.4

Briefly, inhibition measured for CCOC(=O)C1(Cc2ccccc2C)CCCN(Cc2ccc(NC(C)=O)cc2)C1 (centres undefined) : -4.1

Value of measured inhibition for the entry "NC(=O)COC(=O)c1cccc(NS(=O)(=O)/C=C/c2ccccc2)c1" : 4.6

The recorded inhibition for "Cc1cc(O)cc(O)c1C(=O)Cc1ccccc1" is -2.6

Looking up "CC(=O)Nc1ccc(S(=O)(=O)Nc2nc3ccccc3nc2N2CCCCCC2)cc1" , I see its inhibition listed as 2.2

# compound "O=C(O)COc1ccc(/C=N/n2cnc3scc(-c4cccs4)c3c2=O)cc1" ; its inhibition = -8.8

Per the record, "Cc1c2cc(O)c(=O)cc-2oc2cc(O)c(O)cc12" has inhibition of 28.8

The recorded inhibition for "COc1ccc(CC(=O)NNC(=O)c2cccs2)cc1" is -0.3

Memo: N#CC1=C(N)OC2=C(CN(Cc3ccccc3)C/C2=C\c2cccnc2)C1c1cccnc1 (centres undefined) , reported inhibition: 11.3

Lookup result for "O=C(c1ccc(-c2ccccc2)cc1)N1CCC(C(=O)N2CCCC2)CC1" ; measured inhibition: 5.4

Notebook: O=C1CC(=O)C(n2cncn2)C(c2ccc(Cl)cc2Cl)C1 (centres undefined) , inhibition read as 14.4

Looking up "CC(C)Cc1nc(N2CCC(C(N)=O)CC2)c2nnn(Cc3ccccc3)c2n1" , I see its inhibition listed as -15

Just so you know, measured inhibition for "NC(=O)CSc1nc2ccccc2nc1SCC(N)=O" came out at -6.6

inhibition for CCOC(=O)C1=C(c2ccccc2)NC(SCC(=O)Nc2cccc(C)c2)=C(C#N)C1c1ccco1 (centres undefined) is 15.6

Just so you know, measured inhibition for "CCOC(=O)c1c(-c2ccc(C)o2)csc1NC(=O)COC(=O)c1cccs1" came out at 16.6

"CCOc1ccccc1NC(=O)CN(c1ccc(OC)cc1OC)S(=O)(=O)c1ccccc1[N+](=O)[O-]" yielded inhibition of -0.9

The compound "CCCC(=O)c1ccc(N2CCN(C(=O)c3ccc(Br)cc3)CC2)c(F)c1" showed inhibition equal to -2.3

get_value(item= CC(C)C(c1nnnn1C1CCCCC1)N1CCCc2ccccc21 (centres undefined) , readout=inhibition) returns 8.3

According to the records, this compound "Cc1ccc(/C=C/C(=O)N2CCCN(C(=O)/C=C/c3ccc(C)cc3)CC2)cc1" displays inhibition of 2.5

Reported inhibition of "CCOC(=O)c1c(-c2ccc(C)o2)csc1NC(=O)CN1CCCCC1" : 20.2

// inhibition value for "CCOc1ccccc1-c1c2cc(O)c(=O)cc-2oc2cc(O)c(O)cc12" : 42

Lookup result for "O=C(Oc1cccc2c(OC(=O)N3CCCC3)cccc12)N1CCCC1" ; measured inhibition: 57.3

Entry "CCOC(=O)c1c(-c2ccc(C)o2)csc1N" — recorded inhibition = 51.6

Field inhibition (entry "COc1ccc(CCNc2ccc(S(=O)(=O)N3CCCC3)cc2[N+](=O)[O-])cc1" ) reads -0.1

For "COc1ccc2cc3[n+](cc2c1OC)CCc1cc2c(cc1-3)OCO2" the compound record lists inhibition as 33.7

The reported inhibition of the compound "CCOC(=O)c1c(-c2ccco2)csc1N" was 57.9

The compound identified as CCOC(=O)C1(Cc2ccccc2C)CCCN(Cc2cc(OC)c(O)c(OC)c2)C1 (centres undefined) registered its inhibition at 65.5

Item: "CCc1c(C)c(C#N)c2nc3ccccc3n2c1NCc1ccco1" | inhibition: -6.6

get_value(item= O=C(NCc1ccco1)C1Cc2ccccc2CN1C(=O)c1ccco1 (centres undefined) , readout=inhibition) returns -0.2

The reported value for "OCc1nc2ccccc2n1CCCOc1ccccc1" in terms of inhibition is -6.4

The compound identified as "COc1cc2c(cc1OC)-c1cc3ccc4c(c3c[n+]1CC2)OCO4" registered its inhibition at 53.6

Documented inhibition of O=S(=O)(NC1CC2CCC1C2)c1ccc2c(c1)OCCO2 (centres undefined) : 3.1

The compound listed as CCOC(=O)C1(Cc2ccccc2C)CCCN(Cc2cn(C)nc2C)C1 (centres undefined) has a reported inhibition of 12.5
